target_under_test: GABA A receptor α5β3γ2 (Homo sapiens, UniProt P18507+P31644)
Construct: expressed in transfected cells; host or cells: HEK293 (transiently transfected; membranes)
assay_notes: [3H]flumazenil competition binding, membranes of HEK293 cells expressing human GABA A α5β3γ2
condition_summary: human α5β3γ2 in HEK293 (transiently transfected); 0.5 nM [3H]flumazenil; 1 hour at 4° C.; means of two determinations; read-out: Ki[nM]hα5
Field: Ki. Provide a value for each of the compounds that follow.
Lab book: enter the figure in nM, no units written.

[ask] Could you share what Ki was measured for Cc1onc(-c2ccccc2)c1-c1cn2cccc(O)c2n1 , tested on GABA A receptor α5β3γ2 (Homo sapiens, UniProt P18507+P31644)?
[reply] 20.2

[ask] Cc1onc(-c2ccccc2)c1-c1cn2cc(NC(=O)Cc3cccnc3)ccc2n1 ?
[reply] 54.3

[ask] Cc1onc(-c2ccccc2)c1-c1cn2cccc(Cl)c2n1 ?
[reply] 126

[ask] Cc1onc(-c2ccccc2)c1-c1cn2cc(C(=O)NCc3ccncc3)ccc2n1 ?
[reply] 85.5

[ask] Cc1onc(-c2ccccc2)c1-c1cn2cc(C(=O)NC3CCC3)ccc2n1 ?
[reply] 19.8

[ask] Cc1onc(-c2ccccc2)c1-c1cn2cc(NC(=O)C3CCC3)ccc2n1 ?
[reply] 28.2

[ask] Cc1onc(-c2ccccc2)c1-c1cn2ccc(C(=O)NCc3cccnc3)cc2n1 ?
[reply] 97

[ask] Cc1onc(-c2ccccc2)c1-c1cn2cc(C(=O)NCCO)ccc2n1 ?
[reply] 59.8

[ask] Cc1onc(-c2ccccc2)c1-c1cn2cc(Br)ccc2n1 ?
[reply] 121

[ask] Cc1onc(-c2ccccc2)c1-c1cn2cccc(C)c2n1 ?
[reply] 232

[ask] Cc1onc(-c2ccccc2)c1-c1cn2cccc(Br)c2n1 ?
[reply] 146

[ask] Cc1onc(-c2ccccc2)c1-c1cn2ccc(C(=O)NCc3ccco3)cc2n1 ?
[reply] 183

[ask] Cc1onc(-c2ccccc2)c1-c1cn2cc(F)ccc2n1 ?
[reply] 154

[ask] C#CCNC(=O)c1ccn2cc(-c3c(-c4ccccc4)noc3C)nc2c1 ?
[reply] 72.3

[ask] Cc1onc(-c2ccccc2)c1-c1cn2cc(NC(=O)c3ccccc3)ccc2n1 ?
[reply] 30.7

[ask] Cc1onc(-c2ccccc2)c1-c1cn2ccc(C(=O)NC3CCC3)cc2n1 ?
[reply] 168

[ask] Cc1onc(-c2ccccc2)c1-c1cn2cc(C#N)ccc2n1 ?
[reply] 173

[ask] Cc1onc(-c2ccccc2)c1-c1cn2cc(NC(=O)C3CCCC3)ccc2n1 ?
[reply] 54.7

[ask] Cc1onc(-c2ccccc2)c1-c1cn2cc(N3CCCC3=O)ccc2n1 ?
[reply] 48.7

* * *

Field: Ki. Provide a value for each of the compounds that follow.
target_under_test: GABA A receptor α5β3γ2 (Homo sapiens, UniProt P18507+P31644)
Construct: expressed in transfected cells; host or cells: HEK293 (transiently transfected; membranes)
assay_notes: [3H]flumazenil competition binding, membranes of HEK293 cells expressing human GABA A α5β3γ2
condition_summary: human α5β3γ2 in HEK293 (transiently transfected); 0.5 nM [3H]flumazenil; 1 hour at 4° C.; means of two determinations; read-out: Ki[nM]hα5
Lab book: enter the figure in nM, no units written.

[ask] Entry C#Cc1ccc2nc(-c3c(-c4ccccc4)noc3C)cn2c1 [Example 53] : reported Ki = ?
[reply] 164

[ask] Cc1onc(-c2ccccc2)c1-c1cn2ccc(NC(=O)c3cccnc3)cc2n1 [Example 51] ?
[reply] 76.2

[ask] Cc1onc(-c2ccccc2)c1-c1cn2cc(-n3ccnc3)ccc2n1 [Example 66] ?
[reply] 57.4

[ask] Cc1onc(-c2ccccc2)c1-c1cn2ccc(NC(=O)C3CCCC3)cc2n1 [Example 50] ?
[reply] 85.9

[ask] Cc1ccn2cc(-c3c(-c4ccccc4)noc3C)nc2c1 [Example 8] ?
[reply] 81.7

[ask] Cc1onc(-c2ccccc2)c1-c1cn2ccc(C(=O)NCc3ccncc3)cc2n1 [Example 22] ?
[reply] 199

[ask] Cc1onc(-c2ccccc2)c1-c1cn2cc(I)ccc2n1 [Example 52] ?
[reply] 143

[ask] COC(=O)c1ccc2nc(-c3c(-c4ccccc4)noc3C)cn2c1 [Example 29] ?
[reply] 117

[ask] Cc1onc(-c2ccccc2)c1-c1cn2ccc(C(=O)NCCN3CCOCC3)cc2n1 [Example 18] ?
[reply] 159

* * *

target_under_test: GABA A receptor α5β3γ2 (Homo sapiens, UniProt P18507+P31644)
Construct: expressed in transfected cells; host or cells: HEK293 (transiently transfected; membranes)
assay_notes: [3H]flumazenil competition binding, membranes of HEK293 cells expressing human GABA A α5β3γ2
condition_summary: human α5β3γ2 in HEK293 (transiently transfected); 0.5 nM [3H]flumazenil; 1 hour at 4° C.; means of two determinations; read-out: Ki[nM]hα5
measurement_kind: Ki (nM)
Lab book: enter the figure in nM, no units written.

[ask] Entry Cc1ccc2nc(-c3c(-c4ccccc4)noc3C)cn2c1 [Example 24] : reported Ki = ?
[reply] 33.1

[ask] COC(=O)c1ccn2cc(-c3c(-c4ccccc4)noc3C)nc2c1 [Example 10] ?
[reply] 150

[ask] C#Cc1ccn2cc(-c3c(-c4ccccc4)noc3C)nc2c1 [Example 45] ?
[reply] 189

[ask] Cc1onc(-c2ccccc2)c1-c1cn2ccc(C(=O)NCCO)cc2n1 [Example 16] ?
[reply] 114

[ask] Cc1onc(-c2ccccc2)c1-c1cn2ccc(NC(=O)C3CC3)cc2n1 [Example 48] ?
[reply] 79.4

* * *

target_under_test: GABA A receptor α5β3γ2 (Homo sapiens, UniProt P18507+P31644)
Construct: expressed in transfected cells; host or cells: HEK293 (transiently transfected; membranes)
assay_notes: [3H]flumazenil competition binding, membranes of HEK293 cells expressing human GABA A α5β3γ2
condition_summary: human α5β3γ2 in HEK293 (transiently transfected); 0.5 nM [3H]flumazenil; 1 hour at 4° C.; means of two determinations; read-out: Ki[nM]hα5
measurement_kind: log10(Ki) (log10 of the value in nM)
Recall that a logarithmic scale is used here: each number is log10 of Ki in nM.

[ask] Entry Cc1onc(-c2ccccc2)c1-c1cn2cc(C(=O)NCc3cccnc3)ccc2n1 : reported log10(Ki) = ?
[reply] 1.61

[ask] Cc1onc(-c2ccccc2)c1-c1cn2ccc(C(=O)NC3CCCC3)cc2n1 ?
[reply] 2.30

[ask] Cc1onc(-c2ccccc2)c1C(=O)COc1cccn2cc(-c3c(-c4ccccc4)noc3C)nc12 ?
[reply] 2.10

[ask] Cc1onc(-c2ccccc2)c1-c1cn2cc(-n3cccn3)ccc2n1 ?
[reply] 1.61

[ask] Cc1onc(-c2ccccc2)c1-c1cn2cccc(OCc3ccccc3)c2n1 ?
[reply] 1.36

[ask] Cc1onc(-c2ccccc2)c1-c1cn2ccc(C(=O)NC3CCOCC3)cc2n1 ?
[reply] 1.98

[ask] Cc1onc(-c2ccccc2)c1-c1cn2cc(-n3cccc3)ccc2n1 ?
[reply] 1.86

[ask] Cc1onc(-c2ccccc2)c1-c1cn2cc(C(=O)NCC3CC3)ccc2n1 ?
[reply] 1.38

[ask] Brc1ccc2nc(-c3c(-c4ccccc4)noc3C3CC3)cn2c1 ?
[reply] 0.85

* * *

target_under_test: GABA A receptor α5β3γ2 (Homo sapiens, UniProt P18507+P31644)
Construct: expressed in transfected cells; host or cells: HEK293 (transiently transfected; membranes)
assay_notes: [3H]flumazenil competition binding, membranes of HEK293 cells expressing human GABA A α5β3γ2
condition_summary: human α5β3γ2 in HEK293 (transiently transfected); 0.5 nM [3H]flumazenil; 1 hour at 4° C.; means of two determinations; read-out: Ki[nM]hα5
// classify(record): look up Ki in ranges low bracket (below 30 nM), middle bracket (30 nM to below 90 nM), high bracket (90 nM or more)

[ask] Bin this entry: Cc1onc(-c2ccccc2)c1-c1cn2ccccc2n1
[reply] high bracket

[ask] Cc1onc(-c2ccccc2)c1-c1cn2cc(NC(=O)CC3CC3)ccc2n1 ?
[reply] middle bracket

[ask] Cc1onc(-c2ccccc2)c1-c1cn2cc(NC(=O)C3CC3)ccc2n1 ?
[reply] low bracket

[ask] Cc1onc(-c2ccccc2)c1-c1cn2cc(C(=O)NC3CCCC3)ccc2n1 ?
[reply] low bracket

[ask] c1ccc(-c2noc(C3CC3)c2-c2cn3ccccc3n2)cc1 ?
[reply] low bracket

[ask] C#CCNC(=O)c1ccc2nc(-c3c(-c4ccccc4)noc3C)cn2c1 ?
[reply] middle bracket

[ask] Cc1onc(-c2ccccc2)c1-c1cn2ccc(C(=O)NCCCN3CCOCC3)cc2n1 ?
[reply] high bracket

[ask] Cc1onc(-c2ccccc2)c1-c1cn2cc(C(=O)NCCN3CCOCC3)ccc2n1 ?
[reply] high bracket

[ask] Cc1onc(-c2ccccc2)c1-c1cn2cc(C(=O)NC3CCOCC3)ccc2n1 ?
[reply] low bracket

[ask] Cc1onc(-c2ccccc2)c1-c1cn2cc(NC(=O)c3cccnc3)ccc2n1 ?
[reply] low bracket

[ask] Cc1onc(-c2ccccc2)c1-c1cn2ccc(NC(=O)Cc3cccnc3)cc2n1 ?
[reply] middle bracket

[ask] Cc1onc(-c2ccccc2)c1-c1cn2cc(N3CCC3=O)ccc2n1 ?
[reply] low bracket

[ask] CCOC(=O)c1ccc2nc(-c3c(-c4ccccc4)noc3C)cn2c1 ?
[reply] high bracket

[ask] Cc1onc(-c2ccccc2)c1-c1cn2cc(Cl)ccc2n1 ?
[reply] high bracket

[ask] CCc1ccn2cc(-c3c(-c4ccccc4)noc3C)nc2c1 ?
[reply] high bracket

[ask] Cc1onc(-c2ccccc2)c1-c1cn2c(-n3ccnc3)cccc2n1 ?
[reply] low bracket

[ask] Cc1onc(-c2ccccc2)c1-c1cn2ccc(NC(=O)C3CCC3)cc2n1 ?
[reply] middle bracket
